The measurements presented in this section are drawn from patent US20100267561A1.

Measured Plant response rating, Corn, listed per entry for reference.
Test system: corn (Zea mays)
assay_explanation: Test A pre-/postemergence plant response
Type: in vivo
conditions_used: Postemergence, 31 g ai/ha; 0 to 100 scale (0 no effect, 100 complete control)
Excerpt: […] Plants ranged in height from 2 to 10 cm and were in the one- to two-leaf stage for the postemergence treatment. Treated plants and untreated controls were maintained in a greenhouse for approximately 10 days, after which time all treated plants were compared to untreated controls and visually evaluated for injury. […]
quantity_kind: Plant response rating, Corn

1) COC(=O)Oc1cnn(C)c(=O)c1-n1nc(-c2ccc(Cl)cc2)cc1C: 60
2) CCc1cc(-c2ccc(Cl)s2)nn1-c1c(O)cnn(C)c1=O: 0
3) Cn1ncc(O)c(-c2nn(-c3ccc(C(F)(F)F)cn3)cc2Br)c1=O: 0
4) Cc1cc(-c2ccc(Cl)cc2)nn1-c1c(OS(C)(=O)=O)cnn(C)c1=O: 50
5) COc1nn(C)c(=O)c(-n2nc(-c3ccc(Br)cc3)cc2C)c1O: 80
6) CCc1cc(-c2ccc(C(F)(F)F)cc2)nn1-c1c(OC(=O)c2ccc(Cl)nc2)cnn(C)c1=O: 100
7) C#CCOC(=O)Oc1cnn(C)c(=O)c1-n1nc(-c2ccc(Cl)cc2)cc1C: 0

====

Measured Plant response rating, Canarygrass, listed per entry for reference.
Tested on: canarygrass (Phalaris minor)
assay_explanation: Test B postemergence plant response
Type: in vivo
conditions_used: Postemergence, 62 g ai/ha; scale 0 to 100, 0 no effect, 100 complete control
Experimental: At the same time, plants selected from these crop and weed species and also winter barley (Hordeum vulgare), canarygrass (Phalaris minor), chickweed (Stellaria media) and windgrass (Apera spica-venti) were treated with postemergence applications of some of the test chemicals formulated in the same manner. Plants ranged in height from 2 to 18 cm (1- to 4-leaf stage) for postemergence treatments. […]
quantity_kind: Plant response rating, Canarygrass

1) CCc1cc(-c2ccc(Br)cc2)nn1-c1c(O)cnn(C)c1=O: 85
2) Cc1cc(-c2ccc(Cl)cc2)nn1-c1c(OC(=S)N(C)C)cnn(C)c1=O: 0
3) CCc1cc(-c2ccc(Cl)cc2)nn1-c1c(OC(=O)OC(C)C)cnn(C)c1=O: 0
4) COCc1cc(-c2ccc(Br)cc2)nn1-c1c(O)cnn(C)c1=O: 10

====

System: corn (Zea mays)
assay_explanation: Test B pre-/postemergence plant response
Format: in vivo
conditions_used: Preemergence, 31 g ai/ha; 0 to 100 scale, 0 no effect, 100 complete control
quantity_kind: Plant response rating, Corn

1. Cn1ncc(O)c(-c2nn(-c3ccc(Cl)cc3)cc2Br)c1=O: 60
2. CCc1cc(-c2ccc(F)cc2)nn1-c1c(O)cnn(C)c1=O: 50
3. Cc1cc(-c2ccc(Cl)cc2)nn1-c1c(OC(=O)C(C)C)cnn(C)c1=O: 85
4. CCc1cc(-c2ccc(Cl)c(Cl)c2)nn1-c1c(O)cnn(C)c1=O: 80
5. CCc1cc(-c2ccc(Cl)cc2)nn1-c1c(OC(=O)OC(C)C)cnn(C)c1=O: 85
6. Cc1cc(-c2ccc(Cl)cc2)nn1-c1c(OC(=O)c2ccccc2)cnn(C)c1=O: 70
7. Cc1cc(-c2ccc(C(F)(F)F)cc2)nn1-c1c(OC(=O)C(C)(C)C)cnn(C)c1=O: 50
8. Cc1cc(-c2ccc(Cl)cc2)nn1-c1c(OS(C)(=O)=O)cnn(C)c1=O: 70

====

Measured Corn plant response rating, listed per entry for reference.
Tested on: corn (Zea mays)
assay_explanation: Test B pre-/postemergence plant response
Assay type: in vivo
conditions_used: 8 g ai/ha, postemergence; 0-100 scale
quantity_kind: Corn plant response rating

1) CCc1cc(-c2ccc(Cl)cc2)nn1-c1c(OS(C)(=O)=O)cnn(C)c1=O: 0
2) COC(=O)Oc1cnn(C)c(=O)c1-n1nc(-c2ccc(Cl)cc2)cc1C: 80
3) CCc1cc(-c2ccc(Cl)cc2)nn1-c1c(OC(=O)OC(C)C)cnn(C)c1=O: 85
4) CCc1cc(-c2ccc(C(F)(F)F)cc2)nn1-c1c(OS(C)(=O)=O)cnn(C)c1=O: 0

====

Tested on: barnyardgrass (Echinochloa crus-galli)
assay_explanation: Test A pre-/postemergence plant response
Format: in vivo
conditions_used: Postemergence, 31 g ai/ha; 0 to 100 scale (0 no effect, 100 complete control)
Measured Plant response rating, Barnyardgrass, listed per entry for reference.
quantity_kind: Plant response rating, Barnyardgrass

1. COC(=O)Oc1cnn(C)c(=O)c1-n1nc(-c2ccc(Cl)cc2)cc1C: 90
2. Cn1ncc(O)c(-c2nn(-c3ccc(C(F)(F)F)cn3)cc2Br)c1=O: 10
3. Cc1cc(-c2ccc(Cl)cc2)nn1-c1c(OS(C)(=O)=O)cnn(C)c1=O: 80
4. CCc1cc(-c2ccc(F)cc2)nn1-c1c(O)cnn(C)c1=O: 80
5. Cc1cc(-c2ccc(Cl)cc2)nn1-c1c(OS(=O)(=O)c2ccccc2[N+](=O)[O-])cnn(C)c1=O: 20
6. CCc1cc(-c2ccc(Cl)s2)nn1-c1c(O)cnn(C)c1=O: 0
7. CCc1cc(-c2ccc(Br)cc2)nn1-c1c(O)c(OC)nn(C)c1=O: 100

====

Measured Plant response rating, Rice, listed per entry for reference.
System: rice (Oryza sativa)
assay_explanation: Test B flooded paddy test plant response
Format: in vivo
conditions_used: Flood (flooded paddy test), 62 g ai/ha; scale 0 to 100, 0 no effect, 100 complete control
quantity_kind: Plant response rating, Rice

1. COc1ccc(-c2cc(C)n(-c3c(O)cnn(C)c3=O)n2)cc1 [Compound 62]: 0
2. CCc1cc(-c2ccc(Cl)cc2)nn1-c1c(OC(=O)OC(C)C)cnn(C)c1=O [Compound 41]: 20
3. Cc1cc(-c2ccc(Cl)cc2)nn1-c1c(OC(=O)c2ccccc2)cnn(C)c1=O [Compound 48]: 0
4. CCc1cc(-c2ccc(F)cc2)nn1-c1c(O)cnn(C)c1=O [Compound 25]: 0
5. CCc1cc(-c2ccc(Cl)c(Cl)c2)nn1-c1c(O)cnn(C)c1=O [Compound 20]: 0
6. CCc1cc(-c2ccc(Cl)cc2)nn1-c1c(OS(C)(=O)=O)cnn(C)c1=O [Compound 39]: 0

====

System: yellow nutsedge (Cyperus esculentus)
assay_explanation: Test B pre-/postemergence plant response
Format: in vivo
conditions_used: 8 g ai/ha, postemergence; 0-100 scale
quantity_kind: Nutsedge, Yellow plant response rating

1. CCc1cc(-c2ccc(C(F)(F)F)cc2)nn1-c1c(OS(C)(=O)=O)cnn(C)c1=O [Compound 19]: 0
2. Cc1cc(-c2ccc(Cl)cc2)nn1-c1c(OC(=O)OCC(C)C)cnn(C)c1=O [Compound 57]: 0
3. Cc1cc(-c2ccc(Br)cc2)nn1-c1c(OC(=O)C2CC2)cnn(C(=O)C2CC2)c1=O [Compound 80]: 0
4. Cc1cc(-c2ccc(Cl)cc2)nn1-c1c(OC(=S)N(C)C)cnn(C)c1=O [Compound 69]: 0
5. COC(=O)Oc1cnn(C)c(=O)c1-n1nc(-c2ccc(Cl)cc2)cc1C [Compound 33]: 0
6. CCc1cc(-c2ccc(F)cc2)nn1-c1c(O)cnn(C)c1=O [Compound 25]: 0
7. CCc1c(C)c(-c2ccc(Cl)cc2)nn1-c1c(O)cnn(C)c1=O [Compound 26]: 0
8. CCc1cc(-c2ccc(Br)cc2)nn1-c1c(O)cnn(C)c1=O [Compound 61]: 0

====

Test system: wild oat (Avena fatua)
assay_explanation: Test C pre-/postemergence plant response
Format: in vivo
conditions_used: Postemergence, 16 g ai/ha; scale 0 to 100, 0 no effect, 100 complete control
Excerpt: […] Treated plants and controls were maintained in a controlled growth environment for 15 to 25 days after which time all species were compared to controls and visually evaluated. […]
Measured Plant response rating, Oat, Wild, listed per entry for reference.
quantity_kind: Plant response rating, Oat, Wild

1. CCc1cc(-c2ccc(F)cc2)nn1-c1c(O)cnn(C)c1=O: 15
2. Cc1cc(-c2ccc(Cl)cc2)nn1-c1c(OC(=O)OCC(C)C)cnn(C)c1=O: 90
3. CCc1cc(-c2ccc(Cl)c(Cl)c2)nn1-c1c(O)cnn(C)c1=O: 98
4. CCc1cc(-c2ccc(C(F)(F)F)cc2)nn1-c1c(OS(C)(=O)=O)cnn(C)c1=O: 100

====

Measured Plant response rating, Itchgrass, listed per entry for reference.
System: itchgrass (Rottboellia cochinchinensis)
assay_explanation: Test E pre-/postemergence plant response
Format: in vivo
conditions_used: Postemergence, 8 g ai/ha, scale 0 to 100
quantity_kind: Plant response rating, Itchgrass

1) Cc1cc(-c2ccc(Cl)cc2)nn1-c1c(OS(C)(=O)=O)cnn(C)c1=O: 0
2) CCc1cc(-c2ccc(Cl)cc2)nn1-c1c(OS(C)(=O)=O)cnn(C)c1=O: 20
3) COC(=O)Oc1cnn(C)c(=O)c1-n1nc(-c2ccc(Cl)cc2)cc1C: 40
4) CCc1cc(-c2ccc(C(F)(F)F)cc2)nn1-c1c(OS(C)(=O)=O)cnn(C)c1=O: 20
5) Cc1cc(-c2ccc(Cl)cc2)nn1-c1c(OC(=O)C(C)C)cnn(C)c1=O: 70
